test system: Canis familiaris; experiment: Diuretic activity in mongrel dog assessed as sodium level in excreted urine at 5 mg/kg, iv measured […] after dosage (reference value: 1 to 91 uequiv/min); type: functional, Canis lupus familiaris
Everything with Activity lower than 80 uEq/min is rule not met; everything else, including exactly 80 uEq/min, is rule met.

Compound | Class name
CC/C(=C\c1ccc(OCCCC(=O)O)c(Cl)c1Cl)[N+](=O)[O-] | rule not met
CC/C(=C\c1cc(Cl)ccc1OCC(=O)O)[N+](=O)[O-] | rule met
O=C(O)COc1c(Cl)cc(Cl)cc1/C=C/[N+](=O)[O-] | rule not met
CC(=O)/C=C/c1ccc(OCC(=O)O)c(Cl)c1Cl | rule met
C/C(=C\c1ccc(OC(C)C(=O)O)c(Cl)c1Cl)[N+](=O)[O-] (configuration not stated) | rule met

All values here come from ChEMBL document CHEMBL3272208.
